# System name: T1, human GPC3 (human, UniProt P51654 25-563)
# T1 construct: range 25-563; soluble analyte; also called soluble human GPC3; glypican 3
# T1 sequence (P51654 25-563 limits assumed): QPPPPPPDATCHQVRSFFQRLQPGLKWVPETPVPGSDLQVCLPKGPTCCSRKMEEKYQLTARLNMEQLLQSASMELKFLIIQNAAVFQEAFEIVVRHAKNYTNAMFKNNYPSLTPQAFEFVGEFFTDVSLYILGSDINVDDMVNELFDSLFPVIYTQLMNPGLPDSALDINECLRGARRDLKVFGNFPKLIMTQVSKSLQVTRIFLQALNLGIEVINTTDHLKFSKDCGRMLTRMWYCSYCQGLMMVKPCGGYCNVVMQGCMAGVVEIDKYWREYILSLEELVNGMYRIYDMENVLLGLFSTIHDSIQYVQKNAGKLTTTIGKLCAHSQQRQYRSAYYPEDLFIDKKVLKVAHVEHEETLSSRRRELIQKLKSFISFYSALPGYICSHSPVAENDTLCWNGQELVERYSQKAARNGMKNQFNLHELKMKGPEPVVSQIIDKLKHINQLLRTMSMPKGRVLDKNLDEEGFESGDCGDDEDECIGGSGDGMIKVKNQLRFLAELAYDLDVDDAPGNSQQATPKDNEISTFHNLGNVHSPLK
# Experiment notes: SPR

| Binder | Uom | Kd |
| --- | --- | --- |
| GCH032-G1dh/none-Hi-Kn010G3/L0000-k0 (antibody, V domains shown, one-arm) VH: QVQLVQSGAEVKKPGASVKVSCKASGYTFTDYEMHWIRQPPGQGLEWIGAIDGKTPDTAYSEKFKGRVTLTADKSTSTAYMELSSLTSEDTAVYYCTRFYSYTYWGQGTLVTVSS VL: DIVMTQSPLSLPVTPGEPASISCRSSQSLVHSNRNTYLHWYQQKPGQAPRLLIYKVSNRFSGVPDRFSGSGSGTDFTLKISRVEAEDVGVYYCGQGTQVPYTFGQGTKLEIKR | nM | 5.74 |
| GCH056-G1dh/none-Hi-Kn010G3/L0011-k0 (antibody, V domains shown, one-arm) VH: QVQLVQSGAEVKKPGASVTVSCKASGYTFTDYEMHWIRQPPGEGLEWIGAIDGETPDTAYSQKFEGRVTLTADKSTSTAYMELSSLTSEDTAVYYCTRFYSYTYWGQGTLVTVSS VL: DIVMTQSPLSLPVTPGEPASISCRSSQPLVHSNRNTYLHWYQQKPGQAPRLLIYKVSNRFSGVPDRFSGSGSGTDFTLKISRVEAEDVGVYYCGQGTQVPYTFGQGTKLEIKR | nM | 4.31 |
| H0610-G1dh/none-Hi-Kn010G3/L0152-k0 (antibody, V domains shown, one-arm) VH: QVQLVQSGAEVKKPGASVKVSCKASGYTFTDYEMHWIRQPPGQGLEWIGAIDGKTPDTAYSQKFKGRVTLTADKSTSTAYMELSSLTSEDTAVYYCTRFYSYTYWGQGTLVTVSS VL: DIVMTQSPLSLPVTPGEPASISCRSSQSLVHSNRNTYLHWYQQKPGQAPRLLIYKVSNRFSGVPDRFSGSGSGTDFTLKISRVEAEDVGVYYCFQGTQVPYTFGQGTKLEIK | nM | 2.36 |
